# System: DENV-4 strain H241
# method_notes: Tetravalent RT-qPCR assay Protocol A, serotype 4
# Type: cell-based
# recorded_conditions: Dengue virus, DENV4, 72 h; RT-qPCR serotype 4 H241, Vero cells, day 3
measured_quantity: pEC50
Here pEC50 is given on a logarithmic scale as minus log10 of the concentration in mol/L.

Examples with answers:
# compound, measured_quantity, measured_number
measured = [
    ("COc1cc(NC(C(=O)N2CCc3ccc(OC(F)(F)F)cc32)c2ccc(Cl)cc2OCCCC(=O)O)cc(-n2cncn2)c1 (single isomer, unassigned) [Compound 13A]", "pEC50", 8.00),
    ("COc1cc(NC(C(=O)N2CCc3cc(OC)c(OC(F)(F)F)cc32)c2ccc(Cl)cc2OCCO)cc(-n2cncn2)c1 (single isomer, unassigned)", "pEC50", 7.25),
    ("COc1cc(NC(C(=O)N2CCc3cc(F)c(OC(F)(F)F)cc32)c2ccc(Cl)cc2OCCCC(=O)O)cc(-n2cncn2)c1 (single isomer, unassigned) [Compound 15B]", "pEC50", 7.82),
]

INPUT: GET /values?readout=pEC50&item= COc1cc(NC(C(=O)N2CCc3ccc(C(F)(F)F)cc32)c2ccc(F)cc2OCCO)cc(-n2cncn2)c1 (single isomer, unassigned)
OUTPUT: 6.74

INPUT: GET /values?readout=pEC50&item= COc1cc(NC(C(=O)N2CCc3cc(F)c(C(F)(F)F)cc32)c2ccc(Cl)cc2OCCO)cc(-n2cncn2)c1 (single isomer, unassigned)
OUTPUT: 6.92

INPUT: GET /values?readout=pEC50&item= COc1cc(NC(C(=O)N2CCc3ccc(OC(F)(F)F)cc32)c2ccc(F)cc2OCCO)cc(-n2cncn2)c1 (single isomer, unassigned)
OUTPUT: 7.01

INPUT: GET /values?readout=pEC50&item= COc1cc(NC(C(=O)N2CCc3ccc(OC(F)(F)F)cc32)c2ccc(Cl)cc2OCCO)cc(-n2cncn2)c1 (single isomer, unassigned)
OUTPUT: 7.22

INPUT: GET /values?readout=pEC50&item= COc1cc(NC(C(=O)N2CCc3ccc(OC(F)(F)F)cc32)c2ccc(Cl)cc2OCCC(C)(C)C(=O)O)cc(-n2cncn2)c1 (single isomer, unassigned) [Compound 14B]
OUTPUT: 7.64

INPUT: GET /values?readout=pEC50&item= COc1cc(NC(C(=O)N2CCc3ccc(C(F)(F)F)cc32)c2ccc(Cl)cc2OCCO)cc(-n2cncn2)c1 (single isomer, unassigned)
OUTPUT: 7.12

INPUT: GET /values?readout=pEC50&item= COc1cc(NC(C(=O)N2CCc3cc(OC)c(C(F)(F)F)cc32)c2ccc(Cl)cc2OCCCC(=O)O)cc(-n2cncn2)c1 (single isomer, unassigned) [Compound 12A]
OUTPUT: 7.00

INPUT: GET /values?readout=pEC50&item= COc1cc(NC(C(=O)N2CCc3cc(OC)c(C(F)(F)F)cc32)c2ccc(Cl)cc2OCCO)cc(-n2cncn2)c1 (single isomer, unassigned)
OUTPUT: 7.05

* * *

# Lookup of reported pEC50 keyed by entry
# Test system: DENV-2 16681 strain
# method_notes: DENV-2 antiviral assay (eGFP fluorescence, Vero cells)
# Assay type: cell-based, Dengue virus
# recorded_conditions: DENV-2 16681 eGFP, MOI 0.5, 3 days
Here pEC50 is given on a logarithmic scale as minus log10 of the concentration in mol/L.

Examples with answers:
# molecule, pEC50
data = [
    ("COc1cc(NC(C(=O)N2CCc3cc(F)c(C(F)(F)F)cc32)c2ccc(Cl)cc2OCCO)cc(-n2cncn2)c1 (single isomer, unassigned) [Compound 7B]", 8.74),
    ("COc1cc(NC(C(=O)N2CCc3cc(OC)c(C(F)(F)F)cc32)c2ccc(Cl)cc2OCCCC(=O)O)cc(-n2cncn2)c1 (single isomer, unassigned) [Compound 12B]", 6.49),
    ("COc1cc(NC(C(=O)N2CCc3ccc(OC(F)(F)F)cc32)c2ccc(Cl)cc2OCCO)cc(-n2cncn2)c1 (single isomer, unassigned) [Compound 6B]", 7.04),
    ("COc1cc(NC(C(=O)N2CCc3c(C)cc(OC(F)(F)F)cc32)c2ccc(Cl)cc2OCCO)cc(-n2cncn2)c1 (single isomer, unassigned) [Compound 10A]", 7.20),
    ("COc1cc(NC(C(=O)N2CCc3cc(OC)c(C(F)(F)F)cc32)c2ccc(Cl)cc2OCCCC(=O)O)cc(-n2cncn2)c1 (single isomer, unassigned) [Compound 12A]", 8.92),
]

Continue with the molecule presented below.
INPUT: GET /values?readout=pEC50&item= COc1cc(NC(C(=O)N2CCc3ccc(C(F)(F)F)cc32)c2ccc(F)cc2OCCO)cc(-n2cncn2)c1 (single isomer, unassigned) [Compound 1A]
OUTPUT: 6.00

* * *

# System: DENV-2 16681 strain
# method_notes: DENV-2 antiviral assay (eGFP fluorescence, Vero cells)
# Type: cell-based, Dengue virus
# recorded_conditions: DENV-2 16681 eGFP, MOI 0.5, 3 days
measured_quantity: EC50 (nM)
Respond with the bare value in nM.

Examples with answers:
# compound, measurement_target, scale_unit, EC50
rows = [
    ("COc1cc(NC(C(=O)N2CCc3cc(OC)c(OC(F)(F)F)cc32)c2ccc(Cl)cc2OCCO)cc(-n2cncn2)c1 (single isomer, unassigned) [Compound 8B]", "DENV-2 16681 strain", "nM", 250),
    ("COc1cc(NC(C(=O)N2CCc3ccc(C(F)(F)F)cc32)c2ccc(Cl)cc2OCCCC(=O)O)cc(-n2cncn2)c1 (single isomer, unassigned) [Compound 11B]", "DENV-2 16681 strain", "nM", 0.2),
    ("COc1cc(NC(C(=O)N2CCc3cc(OC)c(C(F)(F)F)cc32)c2ccc(Cl)cc2OCCO)cc(-n2cncn2)c1 (single isomer, unassigned) [Compound 5A]", "DENV-2 16681 strain", "nM", 42),
    ("COc1cc(NC(C(=O)N2CCc3ccc(OC(F)(F)F)cc32)c2ccc(Cl)cc2OCCC(C)(C)C(=O)O)cc(-n2cncn2)c1 (single isomer, unassigned) [Compound 14A]", "DENV-2 16681 strain", "nM", 420),
]

Continue with the compound presented below.
INPUT: Item COc1cc(NC(C(=O)N2CCc3cc(F)c(OC(F)(F)F)cc32)c2ccc(Cl)cc2OCCO)cc(-n2cncn2)c1 (single isomer, unassigned) [Compound 9A] with DENV-2 16681 strain - EC50?
OUTPUT: 250

* * *

# Lookup of reported CC50 at 3 days keyed by entry
# method_notes: in vitro
# Type: cell-based
# recorded_conditions: African green monkey

# compound, CC50 at 3 days
records = [
    ("COc1cc(NC(C(=O)N2CCc3c(C)cc(OC(F)(F)F)cc32)c2ccc(Cl)cc2OCCCC(=O)O)cc(-n2cncn2)c1 (single isomer, unassigned) [Compound 16B]", "> 1 µM"),
]

INPUT: GET /values?readout=CC50 at 3 days&item= COc1cc(NC(C(=O)N2CCc3cc(OC)c(C(F)(F)F)cc32)c2ccc(F)cc2OCCO)cc(-n2cncn2)c1 (single isomer, unassigned)
OUTPUT: > 2.5 µM

INPUT: GET /values?readout=CC50 at 3 days&item= COc1cc(NC(C(=O)N2CCc3cc(OC)c(C(F)(F)F)cc32)c2ccc(Cl)cc2OCCO)cc(-n2cncn2)c1 (single isomer, unassigned)
OUTPUT: > 2.5 µM

INPUT: GET /values?readout=CC50 at 3 days&item= COc1cc(NC(C(=O)N2CCc3ccc(C(F)(F)F)cc32)c2ccc(F)cc2OCCO)cc(-n2cncn2)c1 (single isomer, unassigned)
OUTPUT: > 2.5 µM

INPUT: GET /values?readout=CC50 at 3 days&item= COc1cc(NC(C(=O)N2CCc3ccc(C(F)(F)F)cc32)c2ccc(Cl)cc2OCCCC(=O)O)cc(-n2cncn2)c1 (single isomer, unassigned) [Compound 11B]
OUTPUT: > 2.5 µM

INPUT: GET /values?readout=CC50 at 3 days&item= COc1cc(NC(C(=O)N2CCc3ccc(C(F)(F)F)cc32)c2ccc(Cl)cc2OCCO)cc(-n2cncn2)c1 (single isomer, unassigned)
OUTPUT: > 2.5 µM

INPUT: GET /values?readout=CC50 at 3 days&item= COc1cc(NC(C(=O)N2CCc3ccc(OC(F)(F)F)cc32)c2ccc(Cl)cc2OCCCC(=O)O)cc(-n2cncn2)c1 (single isomer, unassigned) [Compound 13A]
OUTPUT: > 2.5 µM

INPUT: GET /values?readout=CC50 at 3 days&item= COc1cc(NC(C(=O)N2CCc3ccc(OC(F)(F)F)cc32)c2ccc(Cl)cc2OCCC(C)(C)C(=O)O)cc(-n2cncn2)c1 (single isomer, unassigned) [Compound 14B]
OUTPUT: 2.3 µM

All figures here come from patent US11083707B2.
